# Tested on: DLD1
# protocol_details: TCF/Wnt firefly luciferase reporter signal relative to plate median (fraction of plate median); higher = higher Wnt reporter signal
# applied_conditions: 5 µM; treatment time 24 h; reporter: 7TFP
Each item that follows carries a reported TCF/Wnt firefly luciferase reporter signal.

Answered cases to consult:
INSERT INTO results (compound, reported_measurement) VALUES
  ('CC(=O)C12OC(C)(c3ccccc3)OC1CC1C3CCC4=CC(=O)CCC4(C)C3CCC12C (configuration not stated)', 0.977),
  ('O=c1c(O)c(-c2ccccc2)oc2ccccc12', 1.1),
  ('CCCCCC/C=C\CCCCCCCc1cccc(O)c1C(=O)O', 0.985),
  ('CN1CCN(CC/C=C2/c3ccccc3Sc3ccc(S(=O)(=O)N(C)C)cc32)CC1', 1.11),
  ('CC(C(=O)O)c1ccc(N2Cc3ccccc3C2=O)cc1 (configuration not stated)', 0.99),
  ('CC1(C)O[C@@H]2C[C@H]3[C@@H]4CCC5=CC(=O)C=C[C@]5(C)[C@H]4[C@@H](O)C[C@]3(C)[C@]2(C(=O)CO)O1', 0.979),
  ('O=C(O)c1ccccc1', 1.12),
  ('COC(=O)c1c(OC)cc2c(c1C)Oc1c(Cl)c(OC(C)=O)c(Cl)c(C)c1C(=O)O2', 1.03);

Report TCF/Wnt firefly luciferase reporter signal from DLD1 testing of `COc1ccc(C2C(=O)c3ccccc3C2=O)cc1`
0.933

Quote DLD1 TCF/Wnt firefly luciferase reporter signal for entry `N=C(NCCCCCCNC(=N)NC(=N)Nc1ccc(Cl)cc1)NC(=N)Nc1ccc(Cl)cc1` .
1.07

// output TCF/Wnt firefly luciferase reporter signal; input `CC(=O)Nc1ccc(S(=O)(=O)c2ccc(NC(C)=O)cc2)cc1` ; system DLD1
1.09

Recall the reported TCF/Wnt firefly luciferase reporter signal of CCN(CC)CCOC(=O)C(c1ccccc1)C1CCCCC1 (configuration not stated) on DLD1 and write it down.
0.996

###

This listing pairs molecules with measured TCF/Wnt firefly luciferase reporter signal.
# Test system: DLD1
# protocol_details: TCF/Wnt firefly luciferase reporter signal relative to plate median (fraction of plate median); higher = higher Wnt reporter signal
# applied_conditions: 10 µM; treatment time 24 h; reporter: 7TFP
Lab note: write the figure by itself, no unit.

INSERT INTO measurements (molecule, reported_measurement) VALUES
  ('N#CC[C@H](C1CCCC1)n1cc(-c2ncnc3[nH]ccc23)cn1', 1.05);

Then this molecule:
Answer with reported TCF/Wnt firefly luciferase reporter signal of CO[C@H]1C[C@@H]2CC[C@@H](C)[C@@](O)(O2)C(=O)C(=O)N2CCCC[C@H]2C(=O)O[C@H]([C@H](C)C[C@@H]2CC[C@@H](OCCO)[C@H](OC)C2)CC(=O)[C@H](C)/C=C(\C)[C@@H](O)[C@@H](OC)C(=O)[C@H](C)C[C@H](C)/C=C/C=C/C=C/1C [Everolimus (RAD001)]
0.893

###

# Test system: DLD1
# protocol_details: TCF/Wnt firefly luciferase reporter signal relative to plate median (fraction of plate median); higher = higher Wnt reporter signal
# applied_conditions: 5 µM; treatment time 24 h; reporter: 7TFP
Label scheme, based on TCF/Wnt firefly luciferase reporter signal: bucket A (below 0.9), bucket B (0.9 to below 1), bucket C (1 or more)

See these solved cases before continuing.
INSERT INTO measurements (molecule, qualitative_label) VALUES
  ('COc1ccc(-c2coc3cc(O)ccc3c2=O)c(OC)c1O', 'bucket A'),
  ('CC/C(=C(\c1ccccc1)c1ccc(OCCN(C)C)cc1)c1ccccc1', 'bucket A'),
  ('CC(=O)Oc1ccc(O)cc1', 'bucket C'),
  ('CC(=O)O[C@@H]1CC2C(C)(C)[C@H](O)C=C[C@]2(C)C2CC[C@@]3(C)[C@H](c4ccoc4)OC(=O)C4OC43[C@@]21C (stereo not given in full)', 'bucket B'),
  ('CC(=O)N[C@@H](Cc1c[nH]c2ccccc12)C(N)=O', 'bucket C');

Category lookup for the molecule `CC(=O)O[C@@H]1C[C@H]2C(C)(C)C(=O)CC[C@]2(C)[C@H]2CC[C@@]3(C)[C@H](c4ccoc4)OC(=O)[C@H]4O[C@]43[C@@]21C`
bucket B
